- tested.target: human histamine H4 receptor (Homo sapiens)
- Construct: expressed in transfected cells; host or cells: SK-N-MC cells or COS7 cells, transiently transfected; cell membranes used
- assay.overview: Binding assay on recombinant human histamine H4 receptor (3H-histamine displacement)
- details: competition binding with 3H-histamine; membranes of SK-N-MC or COS7 cells expressing human H4 receptor; Cheng-Prusoff, KD 5 nM, ligand 5 nM
parameter: Ki (µM)

P: Cc1cc2[nH]c(-c3ccc(OCCCN4CCCN(C)CC4)c(Cl)c3)nc2cc1Cl
Q: Cc1c(-c2nc3c(C)cccc3[nH]2)ccnc1OCCCCC1CCN(C)CC1
Ask: For the pair P and Q , which entry has the numerically smaller recorded Ki? Record your answer as the label of the chosen record.
Result: Q

a: Cc1ccc2[nH]c(-c3cc(OCCCCC4CCN(C)CC4)ncc3Br)nc2c1C
b: Cc1c(Cl)ccc2[nH]c(-c3ccc(OCCCC4=CCN(C)CC4)nc3)nc12
c: Cc1cnc(OCCCCC2CCN(C)CC2)cc1-c1nc2c(C)c(F)ccc2[nH]1
d: Cc1cccc2[nH]c(-c3ccc(OCCCN4CCCN(C)CC4)cc3Cl)nc12
Ask: Hello, I need these entries ordered by Ki, highest reading first. Thanks! Field: ranking. Enter the labels in the order requested.
Result: b, d, a, c
(b: 0.427 µM, d: 0.009 µM, a: 0.005 µM, c: 0.003 µM)

P: CN1CCC(CCCOc2ccc(-c3nc4c(ccc5ccccc54)[nH]3)c(Cl)c2)CC1
Q: CN1CCC(CCCOc2ccc(-c3nc4cc(C(C)(C)C)ccc4[nH]3)cc2Cl)CC1
Ask: Between the entries labelled P and Q , which has a larger Ki value on record? Record your answer as the label of the chosen record.
Result: Q

----------
- tested.target: human histamine H4 receptor (Homo sapiens, UniProt Q9H3N8)
- Construct: expressed in transfected cells; host or cells: SK-N-MC cells or COS7 cells, transiently transfected; cell membranes used
- assay.overview: Binding assay on recombinant human histamine H4 receptor (3H-histamine displacement)
- details: competition binding with 3H-histamine; membranes of SK-N-MC or COS7 cells expressing human H4 receptor; Cheng-Prusoff, KD 5 nM, ligand 5 nM
parameter: Ki (nM)

Examples from the recorded data:
{"compound": "Cc1cc(Cl)cc2[nH]c(-c3ccc(OCCCC4CCN(C)CC4)cc3F)nc12", "Ki [nM]": 32}
{"compound": "Cc1ccc2[nH]c(-c3ccc(OCCCC4CCN(C)CC4)nc3)nc2c1C", "Ki [nM]": 26}
{"compound": "Cc1cc(Cl)cc2[nH]c(-c3ccnc(OCCCCC4CCN(C)CC4)c3Cl)nc12", "Ki [nM]": 12}

A: Cc1cnc(OCCCCC2CCN(C)CC2)cc1-c1nc2cc(Cl)c(F)cc2[nH]1
B: Cc1ccc2[nH]c(-c3ccc(OCCCC4CCN(C)CC4)cc3)nc2c1
Ask: For the pair A and B , which entry has the numerically smaller recorded Ki? Record your answer as the label of the chosen record.
Result: A

----------
- tested.target: human histamine H4 receptor (Homo sapiens, UniProt Q9H3N8)
- Construct: expressed in transfected cells; host or cells: SK-N-MC cells or COS7 cells, transiently transfected; cell membranes used
- assay.overview: Binding assay on recombinant human histamine H4 receptor (3H-histamine displacement)
- details: competition binding with 3H-histamine; membranes of SK-N-MC or COS7 cells expressing human H4 receptor; Cheng-Prusoff, KD 5 nM, ligand 5 nM
parameter: Ki (nM)

Examples from the recorded data:
{"given.smiles": "CN1CCC(CCCCOc2cc(-c3nc4cc(C(C)(C)C)ccc4[nH]3)c(Cl)cn2)CC1", "unit.label": "nM", "Ki": 1}
{"given.smiles": "Cc1cc(Cl)cc2[nH]c(-c3cccc(OCCCCC4CCN(C)CC4)c3)nc12", "unit.label": "nM", "Ki": 28}
{"given.smiles": "Cc1cccc2[nH]c(-c3ccnc(OCCCCC4CCN(C)CC4)c3)nc12", "unit.label": "nM", "Ki": 5}
{"given.smiles": "COc1cc(OCCCC2CCN(C)CC2)ncc1-c1nc2c(C)c(F)ccc2[nH]1", "unit.label": "nM", "Ki": 94}
{"given.smiles": "Cc1c(F)ccc2[nH]c(-c3cccc(OCCCCC4CCN(C)CC4)c3)nc12", "unit.label": "nM", "Ki": 4}
{"given.smiles": "CN1CCN(CCCOc2cccc(-c3nc4ccccc4[nH]3)c2)CC1", "unit.label": "nM", "Ki": 203}

A: Cc1cc(OCCCC2CCN(C)CC2)ccc1-c1nc2c(C)cc(Cl)cc2[nH]1
B: Cc1cc(C)c2nc(-c3ccnc(OCCCCC4CCNCC4)c3)[nH]c2c1
Ask: For the pair A and B , which entry has the numerically smaller recorded Ki? Record your answer as the label of the chosen record.
Result: A
(A: 6 nM, B: 179 nM)

----------
- tested.target: human histamine H4 receptor (Homo sapiens, UniProt Q9H3N8)
- Construct: expressed in transfected cells; host or cells: SK-N-MC cells or COS7 cells, transiently transfected; cell membranes used
- assay.overview: Binding assay on recombinant human histamine H4 receptor (3H-histamine displacement)
- details: competition binding with 3H-histamine; membranes of SK-N-MC or COS7 cells expressing human H4 receptor; Cheng-Prusoff, KD 5 nM, ligand 5 nM
pKi: −log10 of the molar value.
parameter: pKi

Examples from the recorded data:
{"compound": "CN1CCN(CCCOc2ccc(-c3nc4cc(Cl)c(F)cc4[nH]3)c(Cl)c2)CC1 [Example 37]", "pKi": 7.44}
{"compound": "Cc1cc(OCCCC2CCNCC2)ccc1-c1nc2c(C)cc(Cl)cc2[nH]1 [Example 88]", "pKi": 7.28}

I: CCN1CCC(CCCCOc2cc(-c3nc4c(C)c(C)ccc4[nH]3)ccn2)CC1 [Example 154]
II: Cc1ccc2[nH]c(-c3ccnc(OCCCCN4CCCN(C)CC4)c3)nc2c1C [Example 144]
Ask: Between the entries labelled I and II , which has a larger pKi value on record? Record your answer as the label of the chosen record.
Result: II

----------
- tested.target: human histamine H4 receptor (Homo sapiens, UniProt Q9H3N8)
- Construct: expressed in transfected cells; host or cells: SK-N-MC cells or COS7 cells, transiently transfected; cell membranes used
- assay.overview: Binding assay on recombinant human histamine H4 receptor (3H-histamine displacement)
- details: competition binding with 3H-histamine; membranes of SK-N-MC or COS7 cells expressing human H4 receptor; Cheng-Prusoff, KD 5 nM, ligand 5 nM
parameter: Ki (nM)

Examples from the recorded data:
{"given.smiles": "CN1CCC(CCCCOc2cc(-c3nc4cc(C(C)(C)C)ccc4[nH]3)c(Br)cn2)CC1", "unit.label": "nM", "readout.number": 117}
{"given.smiles": "Cc1cc(C)c2nc(-c3cccc(OCCCCC4CCN(C)CC4)c3C)[nH]c2c1", "unit.label": "nM", "readout.number": 38}
{"given.smiles": "Cc1cccc2[nH]c(-c3ccc(OCCN(C)C4CCN(C)CC4)cc3Cl)nc12", "unit.label": "nM", "readout.number": 633}
{"given.smiles": "Cc1c(F)ccc2[nH]c(-c3cccc(OCCCOC4CCN(C)CC4)c3)nc12", "unit.label": "nM", "readout.number": 321}
{"given.smiles": "Cc1ccc2[nH]c(-c3cc(OCCCCC4CCN(C)CC4)ncc3Cl)nc2c1C", "unit.label": "nM", "readout.number": 3}

A: Cc1cc(-c2nc3cc(C(C)(C)C)ccc3[nH]2)ccc1OCCCC1CCN(C)CC1
B: Cc1c(Cl)ccc2[nH]c(-c3cc(OCCCCC4CCN(C)CC4)ncc3Br)nc12
Ask: For the pair A and B , which entry has the numerically smaller recorded Ki? Record your answer as the label of the chosen record.
Result: B
(B: 12 nM, A: 43 nM)

I: CN1CCN(CCCOc2c(Br)cc(-c3nc4cc(C(C)(C)C)ccc4[nH]3)cc2Br)CC1
II: CN1CCN(CCCOc2ccc(-c3nc4cc(Cl)c(F)cc4[nH]3)cc2Cl)CC1
Ask: For the pair I and II , which entry has the numerically smaller recorded Ki? Record your answer as the label of the chosen record.
Result: II

A: Cc1cnc(OCCCCC2CCN(C)CC2)cc1-c1nc2cc(C(C)(C)C)ccc2[nH]1
B: CN1CCN(CCCCOc2cccc(-c3nc4cc(C(=O)c5ccccc5)ccc4[nH]3)c2)CC1
Ask: Between the entries labelled A and B , which has a larger Ki value on record? Record your answer as the label of the chosen record.
Result: B
(B: 324 nM, A: 4 nM)

----------
- tested.target: human histamine H4 receptor (Homo sapiens, UniProt Q9H3N8)
- Construct: expressed in transfected cells; host or cells: SK-N-MC cells or COS7 cells, transiently transfected; cell membranes used
- assay.overview: Binding assay on recombinant human histamine H4 receptor (3H-histamine displacement)
- details: competition binding with 3H-histamine; membranes of SK-N-MC or COS7 cells expressing human H4 receptor; Cheng-Prusoff, KD 5 nM, ligand 5 nM
pKi: −log10 of the molar value.
parameter: pKi

Examples from the recorded data:
{"compound": "Cc1cc(-c2nc3cc(Cl)c(F)cc3[nH]2)ccc1OCCCN1CCN(C)CC1 [Example 45]", "tested.target": "human histamine H4 receptor (Homo sapiens, UniProt Q9H3N8)", "pKi": 6.96}
{"compound": "Cc1cc(OCCCC2CCNCC2)ccc1-c1nc2c(C)c(F)ccc2[nH]1 [Example 89]", "tested.target": "human histamine H4 receptor (Homo sapiens, UniProt Q9H3N8)", "pKi": 6.92}
{"compound": "CN1CCN(CCCOc2ccc(-c3nc4cc(Cl)ccc4[nH]3)cc2Cl)CC1 [Example 43]", "tested.target": "human histamine H4 receptor (Homo sapiens, UniProt Q9H3N8)", "pKi": 7.09}

A: Cc1cccc2[nH]c(-c3ccc(OCCCN4CCN(C)CC4)c(F)c3)nc12 [Example 11]
B: CN1CCN(CCCOc2ccc(-c3nc4ccccc4[nH]3)cc2Cl)CC1 [Example 47]
Ask: Between the entries labelled A and B , which has a larger pKi value on record? Record your answer as the label of the chosen record.
Result: A
